Recorded values, source patent US20250099420A1.

- TESTED_SYSTEM: GPR139 (Homo sapiens, UniProt Q6DWJ6)
- Sequence (Q6DWJ6 whole entry): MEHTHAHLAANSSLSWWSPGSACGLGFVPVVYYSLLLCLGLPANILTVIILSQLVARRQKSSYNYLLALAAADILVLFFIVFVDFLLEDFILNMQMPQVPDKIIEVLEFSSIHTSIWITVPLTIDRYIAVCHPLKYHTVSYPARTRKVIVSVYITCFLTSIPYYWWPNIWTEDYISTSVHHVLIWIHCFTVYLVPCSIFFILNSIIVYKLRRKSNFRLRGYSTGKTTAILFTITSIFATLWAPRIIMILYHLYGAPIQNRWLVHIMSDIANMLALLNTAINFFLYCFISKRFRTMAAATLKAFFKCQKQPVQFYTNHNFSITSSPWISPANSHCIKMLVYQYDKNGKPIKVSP
- PROTOCOL_SUMMARY: GPR139 Agonist titration / agonist counterscreen assay (calcium detection, HEK-GPR139 cells)
- Format: cell-based
- Set-up: expressed in transfected cells; host or cells: HEK Aequorin cells, Maxcyte transient transfection
- EXPERIMENTAL_SETUP: GPR139 Agonist Activity; ligand efficiency
OUTCOME_MEASURE: Efficiency Ligand

[[record]]
molecule = "CCCCn1c(C)c(N(CC)C(=O)C(C)(C)Oc2ccc(C)cc2)c(=O)[nH]c1=O"
outcome_measure = "Efficiency Ligand"
observed_value = 0.42

[[record]]
molecule = "Cc1c2cnn(CC(=O)NC(C)c3ccccc3)c(=O)c2c(C)n1Cc1ccc(F)cc1 (stereo not drawn)"
outcome_measure = "Efficiency Ligand"
observed_value = 0.38

[[record]]
molecule = "C=C1CC(C)(c2ccc(OC)cc2)C(=C)C1CC(=O)CC1CCCCC1 (stereo not drawn)"
outcome_measure = "Efficiency Ligand"
observed_value = 0.37

[[record]]
molecule = "O=C(COc1ccccc1F)NNC(=O)CSc1ccc2ccccc2c1"
outcome_measure = "Efficiency Ligand"
observed_value = 0.42

[[record]]
molecule = "COc1cc(NC(=O)NCCc2ccc3c(c2)CCCN3C)cc(OC)c1"
outcome_measure = "Efficiency Ligand"
observed_value = 0.37

[[record]]
molecule = "COc1ccccc1-c1nnc(NC(=O)Cc2ccc(C)cc2C)o1"
outcome_measure = "Efficiency Ligand"
observed_value = 0.41

[[record]]
molecule = "Cc1cc(C(=O)NNC(=O)CNC(=O)Cc2cccc3ccccc23)c(C)o1"
outcome_measure = "Efficiency Ligand"
observed_value = 0.40

[[record]]
molecule = "Cc1cccnc1NC(=O)Cn1ncc2c1-c1ccccc1OC2"
outcome_measure = "Efficiency Ligand"
observed_value = 0.42

[[record]]
molecule = "Cc1ccc(C(=O)NNC(=O)CSc2nnc(Cn3cnc4ccccc43)o2)cc1"
outcome_measure = "Efficiency Ligand"
observed_value = 0.34


###

- Test system: parental HEK cells
- PROTOCOL_SUMMARY: HEK parental Agonist Counterscreen Assay (non-transfected cells)
- Format: cell-based
- EXPERIMENTAL_SETUP: HEK Agonist Activity section
OUTCOME_MEASURE: Lipophilic Efficiency (logD)

[[record]]
compound = "C=C(CC1C=CC2=C1c1ccccc1CC2)Nc1ccc(CC)cc1 (stereo not shown)"
observed_value = 2.53

[[record]]
compound = "CCn1c2ccccc2c2cc(C3C(C#N)=C(N)Oc4n[nH]c(C)c43)ccc21 (stereo not shown)"
observed_value = 1.72


(a) O=C(Cn1ccc2ccccc21)NC1CCN(Cc2ccccc2)CC1
(b) CCCCCc1cc(C2=CCC=C2)ccc1CC(=O)C1CCc2ccccc2C1 (stereo not shown)
Query: // pick larger Lipophilic Efficiency (logD) from pair: a vs b Respond using the label that marks the chosen record.
Response: b
(b: 4.36, a: 2.90)

###

- Test system: parental HEK cells
- PROTOCOL_SUMMARY: HEK parental Agonist Counterscreen Assay (non-transfected cells)
- Format: cell-based
- EXPERIMENTAL_SETUP: HEK Agonist Activity
OUTCOME_MEASURE: Lipophilic Efficiency (logP)

Sample records with Lipophilic Efficiency (logP):
[[record]]
compound = "Cc1ccc(C2(C)NC(=O)N(CC(=O)NCC(C)C)C2=O)cc1 (stereo not drawn) [SR-01000048367]"
observed_value = 3.00

[[record]]
compound = "COc1ccc(C2(C)NC(=O)C(CC(=O)NCCc3ccccc3)C2=O)cc1 (stereo not drawn) [SR-01000918721]"
observed_value = 2.96

[[record]]
compound = "CC1(c2ccc3ccccc3c2)NC(=O)C(CC(=O)NCc2ccco2)C1=O (stereo not drawn) [SR-01000058120]"
observed_value = 2.18

[[record]]
compound = "CC(CCc1ccccc1)NC(=O)Cn1cc2c(n1)CCCC2 (stereo not drawn) [SR-01000137757]"
observed_value = 1.35


(A) O=C(Cn1nnc(-c2ccccc2)n1)NNC(=O)Cn1c(C(F)(F)F)nc2ccccc21 [SR-01000070891]
(B) COc1ccc(NC(=O)NCC2CC(=O)N(c3ccccc3)C2)cc1 (stereo not drawn) [SR-01000912290]
Query: Lab log: flag the item ( A or B ) with the smaller Lipophilic Efficiency (logP) figure. Output the label that corresponds to your choice.
Response: A
(A: 1.83, B: 3.12)
